Origin of the recorded values: patent US20240252501A1

# assay.name: Plasma rivaroxaban concentration-time data and noncompartmental PK: single 20 mg rivaroxaban alone (Period I) vs with steady-state verapamil 360 mg (Period III), mild renal impairment or normal renal function
# conditions: human, in vivo, CL/F/kg, Period III (rivaroxaban and verapamil); Group 2: Normal Renal Function; median
endpoint: CL/F
Your reply should be a number followed by the unit it is expressed in.

Dear colleague, I am looking for the recorded CL/F of the following compound: O=C(NC[C@H]1CN(c2ccc(N3CCOCC3=O)cc2)C(=O)O1)c1ccc(Cl)s1 [rivaroxaban, Rivaroxaban]
1.11 mL/min/kg

###

# assay.name: clinical
# conditions: human, in vivo, 20 mg, tmax
endpoint: Tmax (min)
Quick note: give the figure in min, leave out the unit.

Dear colleague, I am looking for the recorded Tmax of the following compound: O=C(NC[C@H]1CN(c2ccc(N3CCOCC3=O)cc2)C(=O)O1)c1ccc(Cl)s1
30
